# target.system: T1, human LRP5 domains E3-E4 (E644-Q1263 of SEQ ID NO: 42) (human, UniProt O75197 644-1263)
# T1 construct: Soluble fragment made in-house; It was biotinylated for phage sorting; also called LRP5-E3/E4; LRP5E3/E4
# T1 sequence: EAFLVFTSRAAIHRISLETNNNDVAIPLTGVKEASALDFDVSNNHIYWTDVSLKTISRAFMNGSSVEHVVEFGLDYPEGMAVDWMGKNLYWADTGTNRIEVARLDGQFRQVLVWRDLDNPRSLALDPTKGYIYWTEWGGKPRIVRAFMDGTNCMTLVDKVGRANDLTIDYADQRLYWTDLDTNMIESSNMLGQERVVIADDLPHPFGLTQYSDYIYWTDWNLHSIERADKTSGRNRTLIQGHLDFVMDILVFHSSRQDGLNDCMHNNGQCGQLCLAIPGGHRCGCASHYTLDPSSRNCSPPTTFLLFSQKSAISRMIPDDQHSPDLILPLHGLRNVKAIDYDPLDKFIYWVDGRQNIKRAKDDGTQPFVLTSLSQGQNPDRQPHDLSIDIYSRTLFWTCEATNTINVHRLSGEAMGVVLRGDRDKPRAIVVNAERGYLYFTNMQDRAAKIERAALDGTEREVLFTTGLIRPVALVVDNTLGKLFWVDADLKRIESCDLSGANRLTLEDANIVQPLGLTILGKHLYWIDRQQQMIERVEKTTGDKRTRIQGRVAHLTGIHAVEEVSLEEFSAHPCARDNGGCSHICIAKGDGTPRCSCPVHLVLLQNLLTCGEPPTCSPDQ
# method.summary: SPR, BIAcore T100, IgG captured by anti-human Fc, LRP5E3/E4 as analyte, 25 C
pKd: −log10 of the molar value.
pKd for assorted binders
value.kind: pKd

| binder | value.kind | meas.value |
| --- | --- | --- |
| YW629.42.57 (antibody, human IgG1, V domains shown, also called P6C.42.57) VH: EVQLVESGGGLVQPGGSLRLSCAASGFTFSSYAMSWVRQAPGKGLEWVGAISAPGSSTYYADSVKGRFTISRDNSKNTLYLQMNSLRAEDTAVYYCARYYRYAPYRSLGMDVWGQGTLVTVSS VL: DIQMTQSPSSLSASVGDRVTITCRASQGISSYLAWYQQKPGKAPKLLIYAASSLQSGVPSRFSGSGSGTDFTLTISSLQPEDFATYYCQQYYSYPFTFGQGTKVEIKR | pKd | 8.27 |
| YW629.51.78 (antibody, human IgG1, V domains shown, also called P6C.51.78) VH: EVQLVESGGGLVQPGGSLRLSCAASGFTFSSYAMHWVRQAPGKGLEWVSRISSNGGSTYYADSVKGRFTISRDNSKNTLYLQMNSLRAEDTAVYYCARWIPQSYPFASYKSGFDYWGQGTLVTVSS VL: DIQMTQSPSSLSASVGDRVTITCRASQGIFYYLAWYQQKPGKAPKLLIYDASTLESGVPSRFSGSGSGTDFTLTISSLQPEDFATYYCQQYYSYPFTFGQGTKVEIKR | pKd | 9.72 |
| YW629.51 (antibody, human IgG1, V domains shown, also called P6C.51; bivalent LRP5 antibody (P6C.51)) VH: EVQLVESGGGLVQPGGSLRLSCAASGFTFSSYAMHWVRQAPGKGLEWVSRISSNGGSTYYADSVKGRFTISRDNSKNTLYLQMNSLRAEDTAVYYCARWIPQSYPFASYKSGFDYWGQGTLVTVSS VL: DIQMTQSPSSLSASVGDRVTITCRASQGISSYLAWYQQKPGKAPKLLIYDASSLESGVPSRFSGSGSGTDFTLTISSLQPEDFATYYCQQYYSYPFTFGQGTKVEIKR | pKd | 7.89 |
